Test system: SK-MEL-2
experimentSummary: NCI tumour cell line growth inhibition, 48 h
Calls of active or inactive are those of the source. Cut-off read from the data, not from the text of the source: active = GI50 up to about 1.1 µM and inactive = higher.
measurementType: GI50

Field: example entries. Status: answers known.
INSERT INTO results (smilesstring, measurementtype, reading) VALUES
  ('Cc1cn(CC2=NCCN2)c(=O)[nH]c1=O', 'GI50', '> 100 µM (inactive)'),
  ('Nc1nc2[nH]cnc2c(=O)[nH]1', 'GI50', '> 100 µM (inactive)'),
  ('COC(=O)CCC(=O)Nc1cccc(C(F)(F)F)c1', 'GI50', '> 100 µM (inactive)');

So what does the record say about GI50 for Cn1cnc([N+](=O)[O-])c1Sc1nc2ccccc2o1 ?
28.1 µM (inactive)

So what does the record say about GI50 for Cc1c2cnccc2c(C)c2c1c1ccccc1n2CCCCCCCl ?
> 50 µM (inactive)

So what does the record say about GI50 for COc1cc2c(cc1OC)-c1cc3ccccc3c(=O)n1CCC2 ?
29.3 µM (inactive)

---

Tested on: TK-10
experimentSummary: NCI tumour cell line growth inhibition, 48 h
The source made the active and inactive calls. Cut-off read from the data, not from the text of the source: active = GI50 up to about 1.1 µM and inactive = higher.
In this exercise, the only acceptable responses are true = active, false = inactive

For Nc1nc2[nH]cnc2c(=O)[nH]1 , which call appears in the assay record?
false

---

System: DU-145
experimentSummary: NCI tumour cell line growth inhibition, 48 h
Activity calls are given as the source filed them. No stated cut-off is given here; in the data, active = GI50 up to about 1.1 µM and inactive = higher. Positions of bridges follow the written chain, without caps; N, C: chain ends. Non-standard residues stand in square brackets, D forms with d. Residues, ends and D or L forms follow the SMILES beside them. *: point of attachment. PhAc = O=C(Cc1ccccc1)*
measurementType: GI50

INSERT INTO assay_data (molecule, reading) VALUES
  ('O=C1N/N=C\c2ccc(cc2)OCc2cccc(n2)COc2ccc(cc2)/C=N\NC1=O', '> 25 µM (inactive)'),
  ('CCOC(=O)CCSS(=O)(=O)c1ccccc1', '> 100 µM (inactive)'),
  ('C=C1C[C@@H](O)[C@@H](Br)C(C)(C)[C@@]12C=CC(O)(CBr)CC2 (some centres undefined)', '> 100 µM (inactive)'),
  ('Cc1cn([C@H]2C[C@@H]3[C@@H](COC(CCl)N3O)O2)c(=O)[nH]c1=O (some centres undefined)', '> 100 µM (inactive)'),
  ('O=C(Cc1ccccc1)N[C@@H]1COC(=O)[C@@H]2CCCN2C(=O)[C@@H]2CCCN2C1=O (PhAc-[dS]-Pro-Pro; ester 1-C)', '> 100 µM (inactive)');

So what does the record say about GI50 for CN1C(=O)c2ccccc2NC(=O)C12O[C@@H]2c1ccccc1 (some centres undefined) ?
> 100 µM (inactive)

So what does the record say about GI50 for COc1ccc(C2C(C(=O)c3ccccc3)=C(O)C(O)(CC(=O)c3ccccc3)N2c2ccc(OC)cc2)cc1 (centres undefined) ?
38.4 µM (inactive)

So what does the record say about GI50 for CCCC/C=C1\CCC(CN2CCCCC2)C1=O (centres undefined) ?
> 100 µM (inactive)

So what does the record say about GI50 for CCCSc1ccc2[nH]c(N3C(=O)/C(=C/c4ccco4)N=C3c3ccccc3)cc2c1 ?
> 50 µM (inactive)

---

System: PC-3
experimentSummary: NCI tumour cell line growth inhibition, 48 h
The source made the active and inactive calls. No stated cut-off is given here; in the data, active = GI50 up to about 1.1 µM and inactive = higher.
In this exercise, the only acceptable responses are active, inactive

INSERT INTO assay_data (compound, qualitativelabel) VALUES
  ('FC(F)(F)c1nc2cc(SSc3cc4nc(C(F)(F)F)[nH]c4cc3Cl)c(Cl)cc2[nH]1', 'inactive'),
  ('CC(C)C(=O)NCC[C@@H](CNC(=O)OC(C)(C)C)NC(=O)OC(C)(C)C', 'inactive'),
  ('CCOC(=O)c1c(CN2CCOCC2)n(Cc2ccccc2)c2c1cc(O)c1nc(C)c(C)nc12', 'inactive'),
  ('COc1cc(S(=O)(=O)Nc2ccc(-c3csc(N4C(=O)CSC4c4cccc(Oc5ccccc5)c4)n3)cc2)ccc1Cl (stereo unspecified)', 'inactive'),
  ('COc1ccc2oc(=N)c(C(=O)Nc3cccc4ccccc34)cc2c1', 'inactive'),
  ('O=S(=O)(O)c1ccc2c(/N=N/c3ccc(S(=O)(=O)O)c4ccccc34)c(O)c(S(=O)(=O)O)cc2c1', 'inactive'),
  ('O=C(O)C1CCCN1Cc1ccc2c(c1)OCO2 (stereo unspecified)', 'inactive'),
  ('CC(C)(C)OC(=O)CN1C(=O)CC1CC(=O)c1ccccc1 (stereo unspecified)', 'inactive');

For CN(C)CCc1ccnc2nc(-c3ccc4ccccc4c3)cn12 , which call appears in the assay record?
inactive

For O=C(O)c1cc(N(Cc2ccccc2O)Cc2cc(O)ccc2O)ccc1O , which call appears in the assay record?
inactive

For CC1CC(C)CN(S(=O)(=O)c2cc(Cl)c(Oc3ccc([N+](=O)[O-])cc3Cl)c(Cl)c2)C1 (stereo unspecified) , which call appears in the assay record?
inactive

For CC(=O)O[C@@H]1C[C@@]2(C)[C@@H]3CC=C4[C@@H](C[C@H](O)C(=O)C4(C)C)[C@]3(C)C(=O)C[C@]2(C)[C@H]1[C@@](C)(O)C(=O)/C=C/C(C)(C)OC(C)=O , which call appears in the assay record?
inactive

For CN(C)C(=S)C(Cl)(c1ccccc1)c1ccccc1 , which call appears in the assay record?
inactive

For CC(=O)c1ccc(Nc2c3ccccc3nc3occc23)cc1 , which call appears in the assay record?
active

For COC(=O)[C@H](CCSC)NC(=O)N[C@H](C)c1ccccc1 , which call appears in the assay record?
inactive

For CN(C)CCNc1ccc(CO)c2oc3ccc(O)cc3c(=O)c12 , which call appears in the assay record?
inactive

For O=C(O)/C=C\C(=O)Nc1ccc2c(c1)-c1ccccc1C2 , which call appears in the assay record?
inactive

For O=c1[nH]c(N/N=C\C(=N/Nc2nc3ccccc3c(=O)[nH]2)C(O)C(O)C(O)CO)nc2ccccc12 (stereo unspecified) , which call appears in the assay record?
inactive
